- Tested on: Phakopsora pachyrhizi (strain containing the amino acid substitution F129L in the mitochondrial cytochrome b protein)
- assay_notes: Use example 2: protective control of soybean rust on soybeans (PHAKPA P6), inoculation six days after spraying
- Format: in vivo
- conditions_used: % diseased leaf area on soybean, 16 ppm spray, inoculation six days after treatment, untreated controls usually >85 %
Measured PHAKPA Disease level (%) P6 at 16 ppm accompanies every entry in the list below.
parameter: PHAKPA Disease level (%) P6 at 16 ppm

[[record]]
compound_smiles = "CO/N=C(/C(=O)OC)c1cccc(C)c1CO/N=C(\\C)C#Cc1cccc(Br)c1"
parameter = "PHAKPA Disease level (%) P6 at 16 ppm"
numeric_readout = 0

[[record]]
compound_smiles = "CNC(=O)/C(=N/OC)c1ccccc1CO/N=C(\\C)C#Cc1ccc(OC(F)(F)F)cc1C1CC1"
parameter = "PHAKPA Disease level (%) P6 at 16 ppm"
numeric_readout = 22

[[record]]
compound_smiles = "CO/N=C(/C(=O)OC)c1cccc(C)c1CO/N=C(\\C)C#Cc1cccc(OC(F)(F)F)c1"
parameter = "PHAKPA Disease level (%) P6 at 16 ppm"
numeric_readout = 0

[[record]]
compound_smiles = "CO/N=C(/C(=O)OC)c1cccc(C)c1CO/N=C(\\C)C#Cc1ccc(C)cc1"
parameter = "PHAKPA Disease level (%) P6 at 16 ppm"
numeric_readout = 1

[[record]]
compound_smiles = "CO/N=C(/C(=O)OC)c1cccc(C)c1CO/N=C(\\C)C#Cc1ccc(Br)cc1"
parameter = "PHAKPA Disease level (%) P6 at 16 ppm"
numeric_readout = 37

[[record]]
compound_smiles = "CO/N=C(/C(=O)OC)c1cccc(C)c1CO/N=C(\\C)C#Cc1cccc(F)c1"
parameter = "PHAKPA Disease level (%) P6 at 16 ppm"
numeric_readout = 9

[[record]]
compound_smiles = "CNC(=O)/C(=N/OC)c1ccccc1CO/N=C(\\C)C#Cc1cccc(F)c1"
parameter = "PHAKPA Disease level (%) P6 at 16 ppm"
numeric_readout = 8

[[record]]
compound_smiles = "CO/N=C(/C(=O)OC)c1ccccc1CO/N=C(\\C)C#Cc1ccc(F)cc1"
parameter = "PHAKPA Disease level (%) P6 at 16 ppm"
numeric_readout = 50

[[record]]
compound_smiles = "CO/N=C(/C(=O)OC)c1cccc(C)c1CO/N=C(\\C)C#Cc1ccccc1Cl"
parameter = "PHAKPA Disease level (%) P6 at 16 ppm"
numeric_readout = 40

[[record]]
compound_smiles = "CO/N=C(/C(=O)OC)c1ccccc1CO/N=C(\\C)C#Cc1ccc(OC(F)(F)F)cc1"
parameter = "PHAKPA Disease level (%) P6 at 16 ppm"
numeric_readout = 100

[[record]]
compound_smiles = "CO/N=C(/C(=O)OC)c1ccccc1CO/N=C(\\C)C#Cc1c(C2CC2)cccc1C(F)(F)F"
parameter = "PHAKPA Disease level (%) P6 at 16 ppm"
numeric_readout = 87

[[record]]
compound_smiles = "CO/N=C(/C(=O)OC)c1ccccc1CO/N=C(\\C)C#Cc1ccc(Cl)cc1C(C)C"
parameter = "PHAKPA Disease level (%) P6 at 16 ppm"
numeric_readout = 12

[[record]]
compound_smiles = "CNC(=O)/C(=N/OC)c1ccccc1CO/N=C(\\C)C#Cc1ccc(OC(C)C)cc1"
parameter = "PHAKPA Disease level (%) P6 at 16 ppm"
numeric_readout = 60

[[record]]
compound_smiles = "CNC(=O)/C(=N/OC)c1ccccc1CO/N=C(\\C)C#Cc1ccc(Cl)cc1C(C)C"
parameter = "PHAKPA Disease level (%) P6 at 16 ppm"
numeric_readout = 2

[[record]]
compound_smiles = "CNC(=O)/C(=N/OC)c1cccc(C)c1CO/N=C(\\C)C#Cc1ccccc1"
parameter = "PHAKPA Disease level (%) P6 at 16 ppm"
numeric_readout = 0

[[record]]
compound_smiles = "CO/N=C(/C(=O)OC)c1ccccc1CO/N=C(\\C)C#Cc1cccc(OC(F)(F)F)c1"
parameter = "PHAKPA Disease level (%) P6 at 16 ppm"
numeric_readout = 33

[[record]]
compound_smiles = "CO/N=C(/C(=O)OC)c1cccc(C)c1CO/N=C(\\C)C#Cc1ccccc1F"
parameter = "PHAKPA Disease level (%) P6 at 16 ppm"
numeric_readout = 8


From: patent US20230303483A1
